# measurement context: in propylene glycol, 283.15 K
measurement name: solubility (mole fraction)

| molecule smiles | measurement name | result |
| --- | --- | --- |
| Nc1cncc(Cl)n1 | solubility (mole fraction) | 0.00115 |

---

# measurement context: in DMF, 278.15 K

| molecule smiles | solubility (mole fraction) |
| --- | --- |
| Nc1cncc(Cl)n1 | 0.00915 |

---

# measurement context: in water, 308.15 K

| molecule smiles | solubility (mole fraction) |
| --- | --- |
| Nc1cncc(Cl)n1 | 0.000105 |

---

# measurement context: in acetone, 318.15 K
measurement name: solubility (mole fraction)

| molecule smiles | measurement name | result |
| --- | --- | --- |
| Nc1cncc(Cl)n1 | solubility (mole fraction) | 0.0431 |

---

# measurement context: in ethanol, 288.15 K
measurement name: solubility (mole fraction)

| molecule smiles | measurement name | result |
| --- | --- | --- |
| Nc1cncc(Cl)n1 | solubility (mole fraction) | 0.00226 |

---

# measurement context: in ethylene glycol, 323.15 K
measurement name: solubility (mole fraction)

| molecule smiles | result |
| --- | --- |
| Nc1cncc(Cl)n1 | 0.00377 |

---

# measurement context: in acetonitrile, 288.15 K

| molecule smiles | solubility (mole fraction) |
| --- | --- |
| Nc1cncc(Cl)n1 | 0.0143 |

---

# measurement context: in water, 288.15 K
measurement name: solubility (mole fraction)

| molecule smiles | measurement name | result |
| --- | --- | --- |
| Nc1cncc(Cl)n1 | solubility (mole fraction) | 5.21e-05 |

---

# measurement context: in isopropanol, 293.15 K
measurement name: solubility (mole fraction)

| molecule smiles | measurement name | result |
| --- | --- | --- |
| Nc1cncc(Cl)n1 | solubility (mole fraction) | 0.00737 |

---

# measurement context: in n-propanol, 318.15 K
measurement name: solubility (mole fraction)

| molecule smiles | result |
| --- | --- |
| Nc1cncc(Cl)n1 | 0.0211 |

---

# measurement context: in methanol, 323.15 K

| molecule smiles | solubility (mole fraction) |
| --- | --- |
| Nc1cncc(Cl)n1 | 0.00575 |

---

# measurement context: in water, 318.15 K

| molecule smiles | solubility (mole fraction) |
| --- | --- |
| Nc1cncc(Cl)n1 | 0.000143 |

---

# measurement context: in n-propanol, 313.15 K

| molecule smiles | solubility (mole fraction) |
| --- | --- |
| Nc1cncc(Cl)n1 | 0.0181 |

---

# measurement context: in water, 278.15 K
measurement name: solubility (mole fraction)

| molecule smiles | result |
| --- | --- |
| Nc1cncc(Cl)n1 | 3.62e-05 |

---

# measurement context: in n-propanol, 283.15 K
measurement name: solubility (mole fraction)

| molecule smiles | result |
| --- | --- |
| Nc1cncc(Cl)n1 | 0.00588 |

---

# measurement context: in acetonitrile, 308.15 K
measurement name: solubility (mole fraction)

| molecule smiles | result |
| --- | --- |
| Nc1cncc(Cl)n1 | 0.0295 |

---

# measurement context: in acetone, 293.15 K
measurement name: solubility (mole fraction)

| molecule smiles | result |
| --- | --- |
| Nc1cncc(Cl)n1 | 0.0198 |

---

# measurement context: in acetonitrile, 313.15 K

| molecule smiles | solubility (mole fraction) |
| --- | --- |
| Nc1cncc(Cl)n1 | 0.0352 |
